# assay-method-text: in vivo
# run-parameters: Artemia salina (brine shrimp), in vivo
quantity-name: LC50

C=CCNC(=S)NCc1cccc(OC)c1	232 µg/mL

Source listed as patent US7169815B2.
